# protocol details: Quantitative High-Throughput drug screen in 47 multiple myeloma cell lines against the NCATS MIPE library collection: KMS28PE_JCRB cell viability assay (AID 1918983); note: nearly all actives have a fitted effect of over 35% in size; note: potency is the fitted concentration of half-maximal effect
# conditions used: KMS28PE multiple myeloma viability, CellTiter-Glo ATP, 48 h; series mostly up to 45.8 µM
Inconclusive results are not listed. Calls of active or inactive are those of the source. Calls come from the whole dose curve; as a rule, active = well fitted cell-killing curve with a large enough effect; inconclusive = small, poorly fitted or top-dose-only effect, or effect the other way; inactive = no such curve, though single readings can be large or run the other way.
assay readout: Potency

# example entries with known answers
### Prompt Find the recorded Potency belonging to c1ccc([C@H]2CN3CCSC3=N2)cc1 and report it.
### Response inactive

### Prompt Suppose we examine the molecule Cn1cnc2c(F)c(Nc3ccc(Br)cc3Cl)c(C(=O)NOCCO)cc21 ; what Potency value has been reported?
### Response 9.35 µM (active)

### Prompt Query (molecule): CCOc1cc(N2CCC(O)CC2)ccc1Nc1ncc2c(n1)N(C)c1ccccc1C(=O)N2C ; field requested: Potency
### Response 16.6 µM (active)

### Prompt Form field: reported Potency of Cn1cnc([N+](=O)[O-])c1Sc1ncnc2nc[nH]c12
### Response inactive

### Prompt Which Potency value belongs to O=C1[C@H](Cc2ccc(O)cc2)N2C(=O)CCN(C(=O)NCc3ccccc3)[C@H]2CN1Cc1cccc2ccccc12 ?
### Response 9.35 µM (active)

### Prompt Value lookup for Potency; key = OC(CCN1CCCCC1)(c1ccccc1)C1CC2C=CC1C2 (centres undefined)
### Response inactive

### Prompt Look at this molecule and give its reported Potency. OC[C@H](Cc1ccccc1)Nc1nc(Oc2ccc3c(c2)CCC3)nc2c1ncn2Cc1ccc(-c2ccccc2)cc1
### Response inactive

### Prompt Give the measured Potency of CC(=O)NC(C)c1ccc(Oc2ccc(OC(C)C)cc2)cc1 (centres undefined) .
### Response 18.7 µM (active)

Next:
### Prompt For CS(=O)(=O)c1ccc(C(=O)Nc2ccc(Cl)c(-c3ccccn3)c2)c(Cl)c1 , what is its reported Potency?
### Response inactive

### Prompt Can you look up the measured Potency of CCN(c1ccccc1)c1cc(NC)[n+](C)c(C)n1 for me?
### Response inactive

### Prompt I am curious: what Potency value has been reported for O=c1[nH]c(-c2ccc(C(F)(F)F)cc2)nc2c1CSCC2 ?
### Response inactive

### Prompt Dear colleague, I am looking for the recorded Potency of the following molecule: COc1cccc2cc(-c3nc(C4CCC(C(=O)O)CC4)n4ncnc(N)c34)[nH]c12 (centres undefined)
### Response 0.469 µM (active)

### Prompt Requested field: Potency. Item: Cc1cc(Nc2nc(N[C@@H](C)c3ncc(F)cn3)ncc2Cl)n[nH]1
### Response 20.9 µM (active)

### Prompt I'd like to know its Potency. The molecule in question is CC(c1cc2ccccc2s1)N(O)C(N)=O (centres undefined)
### Response inactive

### Prompt State the recorded Potency for this entry: O=C(O)[C@@H](c1ccc(OCc2ccc3ccccc3n2)cc1)C1CCCC1
### Response inactive

### Prompt // query Potency value for entry NC[C@H](O)c1ccc(O)c(O)c1
### Response 18.7 µM (active)

### Prompt What value of Potency has been recorded for this entry: COCCNCCCn1c(C(=O)CF)c(-c2ccc(C)cc2)c2c(N)ncnc21
### Response inactive

### Prompt Look up Potency for this molecule: O=c1n(CCCN2CCN(c3cccc(Cl)c3)CC2)nc2ccccn12
### Response inactive

### Prompt Bench note: what Potency did COc1ccc(-c2ccc3c(N4CCOC[C@H]4C)nc(N4CCOC[C@H]4C)nc3n2)cc1CO show?
### Response 0.0235 µM (active)

### Prompt # lookup: Potency of CCCCCCCc1ccc(CCc2cccc(O)c2C(=O)O)cc1
### Response inactive
